// reported pIC50 per item
Test system: SMMC-7721
Assay: Cytotoxicity against human SMMC7721 cells after 48 hrs by MTT assay
Type: functional, cell-based
Details: SMMC-7721, 48 h
pIC50: −log10 of the molar value.

Example cases with answers are listed next.
{"Smiles repr": "COc1cc(-c2noc(N)c2-c2cc(OC)c(OC)c(OC)c2)cc(OC)c1OC", "Result": "< 4.30"}
{"Smiles repr": "COc1cc(-c2noc(N(C(C)=O)C(C)=O)c2-c2ccc(Cl)cc2)cc(OC)c1OC", "Result": "< 4.30"}
{"Smiles repr": "COc1cc(-c2noc(NC(C)=O)c2-c2ccc(Cl)cc2)cc(OC)c1OC", "Result": "< 4.30"}

# get_value(readout= pIC50, system= SMMC-7721) for COc1cc(-c2noc(NC(C)=O)c2-c2cc(OC)c(OC)c(OC)c2)cc(OC)c1OC 4.61

# get_value(readout= pIC50, system= SMMC-7721) for COc1ccc(-c2c(-c3cc(OC)c(OC)c(OC)c3)noc2N)cc1OC < 4.30

# get_value(readout= pIC50, system= SMMC-7721) for COc1ccc(-c2c(-c3cc(OC)c(OC)c(OC)c3)noc2N(C(C)=O)C(C)=O)cc1OC < 4.30

# get_value(readout= pIC50, system= SMMC-7721) for COc1ccc(-c2noc(NC(C)=O)c2-c2cc(OC)c(OC)c(OC)c2)cc1 < 4.30

# get_value(readout= pIC50, system= SMMC-7721) for COc1ccc(-c2c(-c3cc(OC)c(OC)c(OC)c3)noc2N(C(C)=O)C(C)=O)cc1 5.87

# get_value(readout= pIC50, system= SMMC-7721) for COc1ccc(-c2noc(N)c2-c2cc(OC)c(OC)c(OC)c2)cc1OC < 4.30

# get_value(readout= pIC50, system= SMMC-7721) for COc1ccc(-c2c(-c3cc(OC)c(OC)c(OC)c3)noc2N)cc1 4.92

# get_value(readout= pIC50, system= SMMC-7721) for COc1ccc(-c2c(-c3cc(OC)c(OC)c(OC)c3)noc2NC(C)=O)cc1 < 4.30

# get_value(readout= pIC50, system= SMMC-7721) for COc1ccc(-c2c(-c3cc(OC)c(OC)c(OC)c3)noc2NC(C)=O)cc1OC 4.33

# get_value(readout= pIC50, system= SMMC-7721) for COc1ccc(-c2noc(N)c2-c2cc(OC)c(OC)c(OC)c2)cc1 4.40

# get_value(readout= pIC50, system= SMMC-7721) for COc1cc(-c2noc(N)c2-c2ccc(Cl)cc2)cc(OC)c1OC < 4.30

# get_value(readout= pIC50, system= SMMC-7721) for COc1ccc(-c2noc(NC(C)=O)c2-c2cc(OC)c(OC)c(OC)c2)cc1OC < 4.30

# get_value(readout= pIC50, system= SMMC-7721) for COc1ccc(/C=C\c2cc(OC)c(OC)c(OC)c2)cc1O 5.49

----------
Tested on: A549
Experiment: Cytotoxicity against human A549 cells after 48 hrs by MTT assay
Assay type: functional, cell-based
Details: A549, 48 h
// reported pIC50 per item
# pIC50: negative log10 of molar concentration; output just the value

Example cases with answers are listed next.
{"Smiles repr": "COc1ccc(-c2noc(N)c2-c2cc(OC)c(OC)c(OC)c2)cc1", "pIC50": 4.66}
{"Smiles repr": "COc1ccc(-c2c(-c3cc(OC)c(OC)c(OC)c3)noc2NC(C)=O)cc1", "pIC50": 4.97}
{"Smiles repr": "COc1ccc(-c2noc(N)c2-c2cc(OC)c(OC)c(OC)c2)cc1OCc1ccccc1", "pIC50": 4.42}

Could you tell me which pIC50 is on file for COc1ccc(-c2c(-c3cc(OC)c(OC)c(OC)c3)noc2N(C(C)=O)C(C)=O)cc1 ? 6.37

Could you tell me which pIC50 is on file for COc1ccc(/C=C\c2cc(OC)c(OC)c(OC)c2)cc1O ? 6.38

Could you tell me which pIC50 is on file for COc1ccc(-c2c(-c3cc(OC)c(OC)c(OC)c3)noc2N)cc1 ? 5.35

Could you tell me which pIC50 is on file for COc1cc(-c2noc(NC(C)=O)c2-c2cc(OC)c(OC)c(OC)c2)cc(OC)c1OC ? 4.67

Could you tell me which pIC50 is on file for COc1ccc(-c2c(-c3cc(OC)c(OC)c(OC)c3)noc2NC(C)=O)cc1OC ? 4.70

Could you tell me which pIC50 is on file for COc1cc(-c2noc(NC(C)=O)c2-c2ccc(Cl)cc2)cc(OC)c1OC ? 4.60

----------
Test system: PC-3
Assay: Cytotoxicity against human PC3 cells after 48 hrs by MTT assay
Type: functional, cell-based
Settings: PC-3, 48 h
Metric: pIC50
# pIC50: negative log10 of molar concentration; output just the value

Example cases with answers are listed next.
{"Smiles repr": "COc1cc(-c2noc(NC(C)=O)c2-c2ccc(Cl)cc2)cc(OC)c1OC", "pIC50": 5.72}
{"Smiles repr": "COc1ccc(-c2noc(N)c2-c2cc(OC)c(OC)c(OC)c2)cc1", "pIC50": 4.82}
{"Smiles repr": "COc1ccc(/C=C\\c2cc(OC)c(OC)c(OC)c2)cc1O", "pIC50": 5.27}
{"Smiles repr": "COc1ccc(-c2c(-c3cc(OC)c(OC)c(OC)c3)noc2N)cc1OC", "pIC50": 4.68}

// moving on: another record for pIC50
Could you tell me which pIC50 is on file for COc1ccc(-c2c(-c3cc(OC)c(OC)c(OC)c3)noc2N(C(C)=O)C(C)=O)cc1 ? 6.44

----------
Tested on: PC-3
Test: Cytotoxicity against human PC3 cells after 48 hrs by MTT assay
Assay type: functional, cell-based
Conditions: PC-3, 48 h
pIC50: −log10 of the molar value.
Metric: pIC50

Example cases with answers are listed next.
{"Smiles repr": "COc1cc(-c2noc(N)c2-c2cc(OC)c(OC)c(OC)c2)cc(OC)c1OC", "pIC50": "< 4.30"}
{"Smiles repr": "COc1ccc(-c2noc(NC(C)=O)c2-c2cc(OC)c(OC)c(OC)c2)cc1O", "pIC50": "< 4.30"}
{"Smiles repr": "COc1ccc(-c2c(-c3cc(OC)c(OC)c(OC)c3)noc2N(C(C)=O)C(C)=O)cc1OC", "pIC50": "< 4.30"}

Could you tell me which pIC50 is on file for COc1ccc(-c2noc(NC(C)=O)c2-c2cc(OC)c(OC)c(OC)c2)cc1 ? < 4.30

Could you tell me which pIC50 is on file for COc1ccc(-c2c(-c3cc(OC)c(OC)c(OC)c3)noc2N)cc1 ? 5.52

Could you tell me which pIC50 is on file for COc1ccc(-c2noc(N)c2-c2cc(OC)c(OC)c(OC)c2)cc1O ? < 4.30

Could you tell me which pIC50 is on file for COc1ccc(-c2noc(N)c2-c2cc(OC)c(OC)c(OC)c2)cc1OC ? < 4.30

Could you tell me which pIC50 is on file for COc1cc(-c2noc(NC(C)=O)c2-c2cc(OC)c(OC)c(OC)c2)cc(OC)c1OC ? 4.83

Could you tell me which pIC50 is on file for COc1cc(-c2noc(N(C(C)=O)C(C)=O)c2-c2ccc(Cl)cc2)cc(OC)c1OC ? 5.58

Could you tell me which pIC50 is on file for COc1ccc(-c2c(-c3cc(OC)c(OC)c(OC)c3)noc2NC(C)=O)cc1OC ? < 4.30
